Just for reference, the supplement of paper PMC8612539 is where these values come from.

System: Histophilus somni
Assay: minimum inhibitory concentration (MIC)
Conditions: isolate (source animal id): 212
Listing: minimum inhibitory concentration of selected compounds

ITEM_SMILES	minimum inhibitory concentration
NC[C@@H]1O[C@H](O[C@H]2[C@@H](O)[C@H](O[C@@H]3[C@@H](O)[C@H](N)C[C@H](N)[C@H]3O[C@H]3O[C@H](CN)[C@@H](O)[C@H](O)[C@H]3N)O[C@@H]2CO)[C@H](N)[C@@H](O)[C@@H]1O	32 µg/mL
CS(=O)(=O)c1ccc([C@@H](O)[C@@H](CF)NC(=O)C(Cl)Cl)cc1	≤ 0.25 µg/mL
CN[C@@H]1[C@H](O)[C@H](NC)[C@H]2O[C@@]3(O)C(=O)C[C@@H](C)O[C@H]3O[C@@H]2[C@H]1O	> 64 µg/mL
CCN1CCN(c2cc3c(cc2F)c(=O)c(C(=O)O)cn3C2CC2)CC1	≤ 0.12 µg/mL
CCCNC[C@]1(O)[C@H](C)O[C@@H](O[C@H]2[C@H](C)[C@@H](O[C@@H]3O[C@H](C)C[C@H](N(C)C)[C@H]3O)[C@](C)(O)C[C@@H](C)CN[C@H](C)[C@@H](O)[C@](C)(O)[C@@H](CC)OC(=O)[C@@H]2C)C[C@@]1(C)OC	≤ 8 µg/mL
C=C[C@]1(C)C[C@@H](OC(=O)CSCCN(CC)CC)[C@]2(C)[C@H](C)CC[C@]3(CCC(=O)[C@H]32)[C@@H](C)[C@@H]1O	≤ 0.5 µg/mL
